Provenance of the data: patent US20230381229A1

# System Under Test: T1, TIGIT (human)
# T1 chain: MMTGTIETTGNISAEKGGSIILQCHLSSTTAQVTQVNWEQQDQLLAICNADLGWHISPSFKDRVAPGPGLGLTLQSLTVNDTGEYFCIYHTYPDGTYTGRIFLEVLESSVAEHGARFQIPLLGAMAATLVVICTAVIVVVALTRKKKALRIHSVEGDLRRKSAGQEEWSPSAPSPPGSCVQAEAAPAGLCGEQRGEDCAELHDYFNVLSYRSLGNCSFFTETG
# Protocol Text: cell-based or functional assay
Field: IL-2 luciferase reporter, Normalized Fold Change from CD155-ECD. Provide a value for each of the binders that follow.

Request: Consider the binder shown here: variant CD155 IgV-Fc P18S, V41A, H49R, S54C, L79S, N85Y, L88P, F91S, L104M, T107M (Fc fusion) WPPPGTGDVVVQAPTQVSGFLGDSVTLPCYLQVPNMEVTHASQLTWARRGESGCMAVFHQTQGPSYSESKRLEFVAARSGAELRYASPRMSGLRVEDEGNYTCMFVMFPQGSRSVDIWLRVLGSGGGGSEPKSSDKTHTCPPCPAPEAEGAPSVFLFPPKPKDTLMISRTPEVTCVVVDVSHEDPEVKFNWYVDGVEVHNAKTKPREEQYNSTYRVVSVLTVLHQDWLNGKEYKCKVSNKALPAPIEKTISKAKGQPREPQVYTLPPSRDELTKNQVSLTCLVKGFYPSDIAVEWESNGQPENNYKTTPPVLDSDGSFFLYSKLTVDKSRWQQGNVFSCSVMHEALHNHYTQKSLSLSPGK What is its recorded IL-2 luciferase reporter, Normalized Fold Change from CD155-ECD?
Response: -1 fold

Request: Given variant CD155 IgV-Fc V9I, P18T, H49R, L79P, N85D, F91S, L104T, T107M (Fc fusion) WPPPGTGDIVVQAPTQVTGFLGDSVTLPCYLQVPNMEVTHVSQLTWARRGESGSMAVFHQTQGPSYSESKRLEFVAARPGAELRDASLRMSGLRVEDEGNYTCTFVMFPQGSRSVDIWLRVLGSGGGGSEPKSSDKTHTCPPCPAPEAEGAPSVFLFPPKPKDTLMISRTPEVTCVVVDVSHEDPEVKFNWYVDGVEVHNAKTKPREEQYNSTYRVVSVLTVLHQDWLNGKEYKCKVSNKALPAPIEKTISKAKGQPREPQVYTLPPSRDELTKNQVSLTCLVKGFYPSDIAVEWESNGQPENNYKTTPPVLDSDGSFFLYSKLTVDKSRWQQGNVFSCSVMHEALHNHYTQKSLSLSPGK , state its recorded IL-2 luciferase reporter, Normalized Fold Change from CD155-ECD.
Response: 4 fold
